# Functional assay IL-8 listing for each entry below
- test_target: CD137 expressed on the cell surface of HT1080_4-1BB cells (human, UniProt Q07011 24-255); note: test concentration or dose not given here
- Sequence (Q07011 24-255): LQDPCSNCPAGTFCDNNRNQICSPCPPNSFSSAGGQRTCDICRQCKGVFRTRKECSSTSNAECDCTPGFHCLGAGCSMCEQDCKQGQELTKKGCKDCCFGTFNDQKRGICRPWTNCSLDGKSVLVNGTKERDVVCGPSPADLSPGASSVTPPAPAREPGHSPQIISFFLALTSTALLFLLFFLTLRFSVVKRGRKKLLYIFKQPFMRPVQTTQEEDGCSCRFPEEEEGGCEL
- protocol_description: cell-based or functional assay
Your answer is read as abs. corr., so omit the unit and give the number.

Please review the entries below; each comes with its answer.
binder="P018.S.13.A.G03 (antibody, V domains shown, V regions on human Ig constant parts; also called AB137_7) VH: QSLEESGGRLVTPGTPLTLTCTASGFSLSSYDVSWVRQAPGKGLEYIGFIGSDGSAHYATWVKGRFTISKTSTTVDLKITSPTTEDTATYFCARDWNDYWAHDLWGPGTLVTVSS VL: AQVLTQTTSPVSAAVGGTVTINCQASQIVTSKSALSWYQQKPGQPPRLLIYKASTLASGVPSRFSGSGSGTQFTLTISDLESDDAATYYCAGGYYNSGDLNPFGGGTEVVVK" scale_unit="abs. corr." reading=-0.164
binder="P018.S.08.A.A04 (antibody, V domains shown, V regions on human Ig constant parts; also called AB137_1) VH: QSVEESGGRLVTPGTPLTLTCTVSGFSLSSYAVSWVRQAPGKGLEWIGVIWNNGATHYATWAKGRFTISKASTTVDLKVTSPTTEDTATYFCARSANDAWSTYSDLWGQGTLVTVSS VL: DIVMTQTPASVEAAVGGTVTIKCQASQTITNYLSWYQQKPGQPPKLLIYKASTLTSGVSSRFKGSGSGTEFTLTISDLESDDAATYYCQNYYYGSSSGYGFVFGGGTEVVVK" scale_unit="abs. corr." reading=0.368
binder="P018.S.13.A.C02 (antibody, V domains shown, V regions on human Ig constant parts; also called AB137_6) VH: QSVEESGGRLVTPGTPLTLTCTVSGFSLSSYAMSWVRQAPGKGLEWIGIISTSGITYYASWAKGRFTISKTSTMVDLKITSPTTEDTATYFCARLNGFDDYVRYFDFWGLGTLVTVSS VL: AIELTQTPSSVSAAVGGTVTINCQASESIASNLAWYQQKPGQPPKLLIYAASYLASGVPSRFKGSGSGTEYTLTISGVQSADAATYYCQSAFYVSSSDNAFGGGTEVVVK" scale_unit="abs. corr." reading=0.113
binder="P018.S.08.A.F03 (antibody, V domains shown, V regions on human Ig constant parts; also called AB137_3) VH: QSVEESGGRLVTPGTPLTLTCTASGFTISSYHMIWVRQAPGEGLEWIGDIYGGTATTDYASWAKGRFTISKTSTTVDLKMTSLTTEDTATYFCARARYSGGSYANYVFNLWGQGTLVTVSS VL: DIVMTQTPASVEAAVGGTVTIKCQASQSISSYLAWYQQKPGQPPKLLIYRTSTLESGVPSRFKGSGSGTEFTLTISDLESADAATYYCQGYDWSSSNRYDNTFGGGTEVVVK" scale_unit="abs. corr." reading=-0.346

Inquiry: What value of Functional assay IL-8 has been recorded for this entry: P018.S.14.A.G03 (antibody, V domains shown, V regions on human Ig constant parts; also called AB137_11) VH: QSLEESGGRLVTPGTPLTLTCTVSGIDLSSYHMCWVRQAPGKGLEYIGYIAYGGNTYYANWAKGRFTISKTSTTVDLRITSPTTEDTATYFCARGYSEDSYWGLWGPGTLVTVSS VL: AYDMTQTPASVEAAVGGTVTIKCQASQNIENYLAWYQQKPGQPPKLLIYDTSKLTSGVPSRFSGSGSGTDFTLTISGVQSDDAATYYCQQDYGIIFVDNIFGGGTEVVVK
Reply text: 0.222

Inquiry: Entry P018.S.13.A.A06 (antibody, V domains shown, V regions on human Ig constant parts; also called AB137_5) VH: QSVEESGGRLVTPGTPLTLTCTASGFTISDFHVTWVRQAPGKGLEWIGTIITSASTTAYATWARGRFTISKSSTTVNLKIVSPTTEDTATYFCARSTYTDTSGYYFDFWGQGTLVTVSS VL: AQVLTQTASPVSAAVGGTVIINCQSSQSIYNGNRLSWYQQKPGQPPKLLIYSASTLASGVSSRFKGSGSGTQFTLAISDVQSDDAATYYCLGSYDCDSADCFAFGGGTEVVVE has what Functional assay IL-8?
Reply text: -0.153

Inquiry: # get_value(readout='Functional assay IL-8', item= P018.S.08.A.E03 (antibody, V domains shown, V regions on human Ig constant parts; also called AB137_2) VH: QSVEESGGRLVTPGTPLTLTCTVSGFSLTYYAVTWVRQPPGKGLEWIGVIYDNGATAFATWAKGRFTMSKNSTTVALKVTSPTTEDTATYFCARSANNAWSTYSNLWGQGTLVTVSS VL: DIVMTQTPSSVSAAVGGTVTINCQASEDISSYLSWYQQKLGQPPKLLIYKASTLESGVPSRFKGSGSGTEYTLTISDLESDDAATYYCQSYYSGSISGYGFVFGGGTGVVVK )
Reply text: -0.304
